# Assayed system: erythrocytes infected with P. falciparum field isolate 10975
# Test protocol: flow cytometry, staining of IEs
Attribute measured: % parasite recognition
Record the result as a number with its unit.

Asked: # % parasite recognition lookup, item MGC4 (antibody) VH: EVQLVESGGGLVQPGGSLRLSCEGSGFNSRSYWMTWVRQAPGKGLEWVASINQDGTEKNYVDSVKGRFTISRDSAKNSLYLQMSSLRADDTAVYYCARDRFCGGESHLHGEEDLPRPSISAEPDTVIPLGSHVTFVCRGPVGVHTFRLERGWRYNDTEDVSQAGPSESEARFRIDSVREGNAGLYRCIYYIAPKWSEQSDYLELRVKGGDVTWALLTYCGGDGEESDYPMDVWGKGTTVTVSS VL: QTVVTQEPSLTVSPGGTVTLTCASSTGPVTSAYYPNWFQQKPGQAPRSLIYSINKKHSWTPARFSGSLLGGKAALTLSGVQPEDEADYYCLLSCGGAQPWVFGGGTKLTVQ
Given back: 6.7%

Reference source: patent US20180186897A1
